# credit: patent US20140249135A1

molecular target: KDR kinase (Homo sapiens, UniProt P35968); experiment: KDR AlphaScreen assay; details: KDR IC50 (μM)
Sequence (P35968 20-1356): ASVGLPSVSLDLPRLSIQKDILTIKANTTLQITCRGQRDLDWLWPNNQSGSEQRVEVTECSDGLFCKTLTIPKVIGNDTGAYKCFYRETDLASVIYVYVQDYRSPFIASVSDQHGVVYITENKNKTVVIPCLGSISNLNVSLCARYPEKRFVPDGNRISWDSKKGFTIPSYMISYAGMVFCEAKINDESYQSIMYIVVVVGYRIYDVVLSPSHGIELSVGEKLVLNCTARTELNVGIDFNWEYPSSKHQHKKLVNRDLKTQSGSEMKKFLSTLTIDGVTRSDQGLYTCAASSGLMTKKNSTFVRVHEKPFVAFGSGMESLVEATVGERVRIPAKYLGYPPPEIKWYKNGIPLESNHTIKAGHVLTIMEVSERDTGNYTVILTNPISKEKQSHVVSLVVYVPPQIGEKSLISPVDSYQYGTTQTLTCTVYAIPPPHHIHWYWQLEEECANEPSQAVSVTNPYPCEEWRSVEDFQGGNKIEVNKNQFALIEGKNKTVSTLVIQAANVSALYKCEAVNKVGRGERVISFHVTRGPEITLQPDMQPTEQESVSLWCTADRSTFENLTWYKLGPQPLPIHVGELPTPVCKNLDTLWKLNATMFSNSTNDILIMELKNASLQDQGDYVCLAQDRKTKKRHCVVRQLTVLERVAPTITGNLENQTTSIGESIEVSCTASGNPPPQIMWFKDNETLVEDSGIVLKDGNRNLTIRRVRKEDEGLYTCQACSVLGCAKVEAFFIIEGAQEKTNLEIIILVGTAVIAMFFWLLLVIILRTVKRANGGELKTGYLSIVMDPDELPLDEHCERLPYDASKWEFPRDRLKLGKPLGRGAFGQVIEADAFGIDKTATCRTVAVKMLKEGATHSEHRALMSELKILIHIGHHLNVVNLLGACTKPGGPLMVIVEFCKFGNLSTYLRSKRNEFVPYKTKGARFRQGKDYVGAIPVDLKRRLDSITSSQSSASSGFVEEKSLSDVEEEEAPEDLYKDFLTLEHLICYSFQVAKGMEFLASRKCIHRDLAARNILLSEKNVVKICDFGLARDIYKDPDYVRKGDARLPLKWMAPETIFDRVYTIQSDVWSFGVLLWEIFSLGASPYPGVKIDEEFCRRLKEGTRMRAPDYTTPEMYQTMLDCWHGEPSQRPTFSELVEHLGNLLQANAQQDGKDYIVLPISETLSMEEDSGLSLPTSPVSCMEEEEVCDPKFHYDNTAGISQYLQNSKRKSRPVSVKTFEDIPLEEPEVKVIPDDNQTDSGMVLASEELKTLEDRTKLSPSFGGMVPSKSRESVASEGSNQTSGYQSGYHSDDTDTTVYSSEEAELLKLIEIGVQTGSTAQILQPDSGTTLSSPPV
REPORTED_METRIC: IC50

{"columns": ["COMPOUND", "SYSTEM", "IC50"],
 "data": [
  ["Nc1nccnc1C(=O)Nc1cc(Cl)ccc1N1CCC(N)CC1", "KDR kinase (Homo sapiens, UniProt P35968)", "10 to 25 µM"],
  ["CC(=O)c1ccc(N2CCNCC2)c(NC(=O)c2nccnc2N)c1", "KDR kinase (Homo sapiens, UniProt P35968)", "> 25 µM"],
  ["NCCC(=O)N1CCN(c2ccncc2NC(=O)c2nc(Cl)c(N)nc2N)CC1", "KDR kinase (Homo sapiens, UniProt P35968)", "1 to 10 µM"],
  ["NCCC(=O)N1CCN(c2ccncc2NC(=O)c2nccnc2N)CC1", "KDR kinase (Homo sapiens, UniProt P35968)", "1 to 10 µM"],
  ["CC(C)COc1cncc(-c2ccc(N)c(C(=O)Nc3cnccc3N3CCC[C@H](N)C3)n2)n1", "KDR kinase (Homo sapiens, UniProt P35968)", "10 to 25 µM"],
  ["Cc1cnc(O)cc1-c1ccncc1NC(=O)c1nc(-c2c(F)cccc2F)ccc1N", "KDR kinase (Homo sapiens, UniProt P35968)", "1 to 10 µM"],
  ["N#Cc1ccccc1-c1ccc(N)c(C(=O)Nc2cnccc2N2CCC[C@H](N)C2)n1", "KDR kinase (Homo sapiens, UniProt P35968)", "> 25 µM"],
  ["Cc1cnc(N)c(C(=O)Nc2ccccc2N2CCCC(N)C2)n1 (stereo not drawn)", "KDR kinase (Homo sapiens, UniProt P35968)", "> 25 µM"],
  ["COc1ccccc1-c1nc(C(=O)Nc2cnccc2N2CCCC(N)C2)c(N)nc1N (stereo not drawn)", "KDR kinase (Homo sapiens, UniProt P35968)", "> 25 µM"],
  ["Nc1ccc(-c2ccc(F)cc2F)nc1C(=O)Nc1cnccc1N1CCC[C@H](N)C1", "KDR kinase (Homo sapiens, UniProt P35968)", "> 25 µM"]
]}

I am curious: what IC50 value has been reported for Nc1ccc(-c2cccc(F)c2F)nc1C(=O)Nc1cnccc1N1CCC[C@H](N)C1 ?
> 25 µM

I am curious: what IC50 value has been reported for Nc1ncc(Br)nc1C(=O)Nc1[nH]c(=O)ncc1N1CCCCC1 ?
< 1 µM

I am curious: what IC50 value has been reported for Cc1ccc(NC(=O)c2nccnc2N)c(N2CCC(N)CC2)c1 ?
10 to 25 µM

I am curious: what IC50 value has been reported for Nc1nc(N)c(C(=O)Nc2[nH]c(=O)ncc2N2CCC(F)(F)CC2)nc1Cl ?
< 1 µM

I am curious: what IC50 value has been reported for CSc1nc(N)cc(-c2ccncc2NC(=O)c2nc(-c3c(F)cccc3F)ccc2N)n1 ?
10 to 25 µM

I am curious: what IC50 value has been reported for COc1ccc(-c2cnc(N)c(C(=O)Nc3ccccc3N3CCCC(N)C3)n2)cc1 (stereo not drawn) ?
1 to 10 µM

I am curious: what IC50 value has been reported for COc1ccc(N2CCC(N)CC2)c(NC(=O)c2nc(Br)cnc2N)c1 ?
1 to 10 µM

I am curious: what IC50 value has been reported for N#Cc1ccc(N2CCCC(N)C2)c(NC(=O)c2nccnc2N)c1 (stereo not drawn) ?
> 25 µM

###

target: Pim2 kinase (Homo sapiens, UniProt Q9P1W9); experiment: Pim2 ATP depletion assay; format: biochemical; settings: read-out: IC50 (μM) PIM2;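 note: Luciferase-based luminescent readout of ATP remaining after PIM2 phosphorylates a BAD peptide, final 5 nM enzyme, 4 µM ATP, 10 µM peptide, 2.5% DMSO, run to roughly half ATP consumption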
Sequence (Q9P1W9 whole entry): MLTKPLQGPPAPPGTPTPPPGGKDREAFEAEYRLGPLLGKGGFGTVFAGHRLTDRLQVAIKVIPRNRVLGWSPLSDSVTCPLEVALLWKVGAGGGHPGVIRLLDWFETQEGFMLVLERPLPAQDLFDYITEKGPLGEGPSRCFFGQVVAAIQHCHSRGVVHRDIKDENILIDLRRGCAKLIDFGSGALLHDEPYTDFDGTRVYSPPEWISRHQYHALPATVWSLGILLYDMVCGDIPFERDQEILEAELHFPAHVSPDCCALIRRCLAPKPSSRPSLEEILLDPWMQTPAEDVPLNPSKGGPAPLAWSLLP
The reader will find reported IC50 values listed item by item below.

Field: example entries. Status: answers known.
{"columns": ["COMPOUND", "IC50"],
 "data": [
  ["Nc1nc(N)c(C(=O)Nc2cnccc2N2CCCC(N)C2)nc1Cl (centres unmarked) [Example 183]", "< 1 µM"],
  ["Nc1ccc(-c2ccsc2)nc1C(=O)Nc1cnccc1N1CCC[C@H](N)C1 [Example 449]", "< 1 µM"],
  ["Nc1nc(N)c(C(=O)Nc2[nH]c(=O)ncc2N2CCC(C(F)(F)F)CC2)nc1Cl [Example 159]", "< 1 µM"],
  ["Nc1nc(N)c(-c2ccccc2F)nc1C(=O)Nc1cnccc1N1CCCC(N)C1 (centres unmarked) [Example 343]", "< 1 µM"],
  ["Nc1cc(-c2ccncc2NC(=O)c2nc(C3=CCNCC3)ccc2N)nc(C(F)(F)F)n1 [Example 526]", "< 1 µM"],
  ["Cc1ccc(S(=O)(=O)N(C)C)cc1-c1ccc(N)c(C(=O)Nc2cnccc2N2CCC[C@H](N)C2)n1 [Example 330]", "< 1 µM"],
  ["Nc1cc(Cl)c(-c2ccc(N)c(C(=O)Nc3cnccc3N3CCC[C@H](N)C3)n2)cn1 [Example 410]", "< 1 µM"]
]}

With those in mind, consider the next compound.
Give the reported IC50 for CSc1nc(N)cc(-c2ccncc2NC(=O)c2nc(-c3cc(C(=O)NC(C)C)ccc3F)ccc2N)n1 [Example 534] (system: Pim2 kinase (Homo sapiens, UniProt Q9P1W9)).
< 1 µM

###

The reader will find reported pIC50 values listed item by item below.
molecular target: Pim3 kinase (Homo sapiens, UniProt Q86V86); assay: Pim3 ATP depletion assay; assay type: biochemical; details: read-out: PIM3 IC50
pIC50: −log10 of the molar value.

Field: example entries. Status: answers known.
{"columns": ["STRUCTURE_AS_SMILES", "SYSTEM", "ENDPOINT_VALUE"],
 "data": [
  ["Cc1csc(-c2ccc(N)c(C(=O)Nc3cnccc3-c3cc(N)nc(C)n3)n2)c1", "Pim3 kinase (Homo sapiens, UniProt Q86V86)", "> 6.00"],
  ["Nc1ccc(-c2ncccc2C(F)(F)F)nc1C(=O)Nc1cnccc1N1CCC[C@H](N)C1", "Pim3 kinase (Homo sapiens, UniProt Q86V86)", "> 6.00"],
  ["Cc1cnc(O)cc1-c1ccncc1NC(=O)c1nc(-c2c(F)cccc2F)ccc1N", "Pim3 kinase (Homo sapiens, UniProt Q86V86)", "> 6.00"],
  ["Nc1ccc(-c2ncccc2F)nc1C(=O)Nc1cnccc1N1CCC[C@H](O)C1", "Pim3 kinase (Homo sapiens, UniProt Q86V86)", "> 6.00"],
  ["COc1cncc(-c2ccncc2NC(=O)c2nc(-c3ccccc3F)ccc2N)c1", "Pim3 kinase (Homo sapiens, UniProt Q86V86)", "> 6.00"]
]}

I am curious: what pIC50 value has been reported for Nc1ccc(-c2ccccc2F)nc1C(=O)Nc1cnccc1-c1cncnc1 ?
> 6.00

I am curious: what pIC50 value has been reported for Nc1ccc(-c2cccc[n+]2[O-])nc1C(=O)Nc1cnccc1N1CCC[C@H](N)C1 ?
> 6.00

I am curious: what pIC50 value has been reported for CCCOc1cncc(-c2nc(C(=O)Nc3cnccc3N3CCC[C@H](N)C3)c(N)cc2F)n1 ?
> 6.00

###

biological target: Pim3 kinase (Homo sapiens); experiment: Pim3 ATP depletion assay; format: biochemical; details: read-out: IC50 (μM) PIM3
REPORTED_METRIC: IC50

{"columns": ["MOLECULE", "REPORTED_METRIC", "ENDPOINT_VALUE"],
 "data": [
  ["Cc1ccccc1-c1cnc(N)c(C(=O)Nc2cnccc2N2CCCC(N)C2)n1 (centres unmarked)", "IC50", "< 1 µM"],
  ["Nc1ncc(-c2ccccc2Oc2ccccc2)nc1C(=O)Nc1ccccc1N1CCNCC1", "IC50", "1 to 10 µM"],
  ["Nc1cc(-c2ccccc2)cnc1C(=O)Nc1cnccc1N1CCC[C@H](N)C1", "IC50", "< 1 µM"],
  ["Cc1nc(N)cc(-c2ccncc2NC(=O)c2nc(-c3cc(C(=O)NC(C)C)ccc3F)ccc2N)n1", "IC50", "< 1 µM"],
  ["Nc1ncc(-c2cccc3ccccc23)nc1C(=O)Nc1ccccc1N1CCNCC1", "IC50", "1 to 10 µM"],
  ["Nc1ccc(-c2cccc(-c3ccccc3)c2)nc1C(=O)Nc1cnccc1N1CCC[C@H](N)C1", "IC50", "< 1 µM"],
  ["Cc1ccc(N2CCNCC2)c(NC(=O)c2nccnc2N)c1", "IC50", "1 to 10 µM"]
]}

With those in mind, consider the next molecule.
I am curious: what IC50 value has been reported for Nc1ccc(-c2cncc(OCC3CC3)n2)nc1C(=O)Nc1cnccc1N1CCC[C@H](N)C1 ?
< 1 µM

###

Target chain: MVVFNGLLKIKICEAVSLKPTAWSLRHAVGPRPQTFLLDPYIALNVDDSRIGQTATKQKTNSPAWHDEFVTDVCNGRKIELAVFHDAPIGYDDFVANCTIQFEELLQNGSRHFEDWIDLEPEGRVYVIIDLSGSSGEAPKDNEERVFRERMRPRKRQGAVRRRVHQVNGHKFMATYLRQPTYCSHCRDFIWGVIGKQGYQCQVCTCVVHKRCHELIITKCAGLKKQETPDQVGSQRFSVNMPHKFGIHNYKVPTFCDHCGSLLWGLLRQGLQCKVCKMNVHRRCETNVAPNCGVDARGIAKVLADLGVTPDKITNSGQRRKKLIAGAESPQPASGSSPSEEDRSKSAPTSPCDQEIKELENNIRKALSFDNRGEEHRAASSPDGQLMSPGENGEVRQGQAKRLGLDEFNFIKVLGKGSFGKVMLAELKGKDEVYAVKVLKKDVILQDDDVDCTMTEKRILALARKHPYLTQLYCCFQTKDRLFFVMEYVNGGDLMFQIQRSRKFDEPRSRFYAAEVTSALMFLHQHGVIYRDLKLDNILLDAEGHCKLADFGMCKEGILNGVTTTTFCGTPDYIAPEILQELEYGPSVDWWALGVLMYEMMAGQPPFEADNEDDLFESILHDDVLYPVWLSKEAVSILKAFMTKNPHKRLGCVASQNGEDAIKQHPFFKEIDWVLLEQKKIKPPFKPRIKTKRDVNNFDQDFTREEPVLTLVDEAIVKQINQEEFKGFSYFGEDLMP
pIC50: −log10 of the molar value.
The reader will find reported pIC50 values listed item by item below.

{"columns": ["COMPOUND", "ENDPOINT_VALUE"],
 "data": [
  ["Nc1ccc(-c2ccc(N)c(C(=O)Nc3cnccc3N3CCC[C@H](N)C3)n2)cn1", "4.60 to 5.00"],
  ["Nc1ncc(-c2ccccc2)nc1C(=O)Nc1cc(C(=O)c2ccccc2)ccc1N1CCC(N)CC1", "5.00 to 6.00"],
  ["NCC1CCCN(c2ccncc2NC(=O)c2nc(Br)cnc2N)C1 (stereo not shown)", "> 6.00"]
]}

With those in mind, consider the next compound.
I am curious: what pIC50 value has been reported for Nc1ccc(-c2c(F)cccc2F)nc1C(=O)Nc1cnccc1N1CCC[C@H](N)C1 ?
5.00 to 6.00
